Prostaglandin G/H synthase 1 (Ovis aries) pIC50 data
Sequence (P05979 whole entry): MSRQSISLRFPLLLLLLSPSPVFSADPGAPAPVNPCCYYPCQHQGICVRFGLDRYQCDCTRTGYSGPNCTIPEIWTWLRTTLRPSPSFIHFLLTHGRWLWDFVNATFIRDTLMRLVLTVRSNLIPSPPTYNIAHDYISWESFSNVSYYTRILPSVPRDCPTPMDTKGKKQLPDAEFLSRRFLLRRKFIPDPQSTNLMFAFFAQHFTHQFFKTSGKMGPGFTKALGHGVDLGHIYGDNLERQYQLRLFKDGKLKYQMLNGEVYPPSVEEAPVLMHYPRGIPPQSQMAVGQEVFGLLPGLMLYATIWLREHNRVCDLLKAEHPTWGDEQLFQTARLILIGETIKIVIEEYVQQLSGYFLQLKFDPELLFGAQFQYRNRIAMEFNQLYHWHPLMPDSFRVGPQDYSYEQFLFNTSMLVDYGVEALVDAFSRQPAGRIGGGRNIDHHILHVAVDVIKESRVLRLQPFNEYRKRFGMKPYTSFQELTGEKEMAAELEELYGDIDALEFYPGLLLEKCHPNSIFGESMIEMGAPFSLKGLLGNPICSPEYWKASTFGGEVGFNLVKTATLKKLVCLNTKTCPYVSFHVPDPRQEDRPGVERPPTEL
pIC50: −log10 of the molar value.
Measured parameter: pIC50

Example entries begin here.
compound="CS(=O)(=O)Nc1ccc(C2=NN(c3ccc(S(N)(=O)=O)cc3)C(c3ccco3)C2)cc1 (stereo unspecified)" target_of_assay="Prostaglandin G/H synthase 1 (Ovis aries)" number=4.78
compound=CC(C)Cc1ccc(-c2cc(-c3cccs3)c(C#N)c(=O)[nH]2)cc1 target_of_assay="Prostaglandin G/H synthase 1 (Ovis aries)" number=4.90
compound=CS(=O)(=O)Nc1ccc(-c2cc(-c3ccc(F)cc3)c(C#N)c(=O)[nH]2)cc1 target_of_assay="Prostaglandin G/H synthase 1 (Ovis aries)" number=4.97
compound="CS(=O)(=O)Nc1ccc(C2=NN(c3ccc(S(N)(=O)=O)cc3)C(c3cccs3)C2)cc1 (stereo unspecified)" target_of_assay="Prostaglandin G/H synthase 1 (Ovis aries)" number=4.60
compound=Cc1ccc(-c2cc(-c3ccc(CC(C)C)cc3)[nH]c(=O)c2C#N)cc1 target_of_assay="Prostaglandin G/H synthase 1 (Ovis aries)" number=4.95

1. CC(C)Cc1ccc(-c2cc(-c3ccco3)c(C#N)c(=O)[nH]2)cc1
2. Cc1ccc(-c2cc(-c3ccc([N+](=O)[O-])cc3)[nH]c(=O)c2C#N)cc1
3. CS(=O)(=O)Nc1ccc(-c2cc(-c3cccs3)c(C#N)c(=O)[nH]2)cc1
Sort entries by pIC50 from minimum to maximum value. Write the labels, ordered according to the request.
3, 2, 1

1. N#Cc1c(-c2ccccc2)cc(-c2ccc([N+](=O)[O-])cc2)[nH]c1=O
2. N#Cc1c(-c2cccs2)cc(-c2ccc([N+](=O)[O-])cc2)[nH]c1=O
Larger number for pIC50: 1 , or 2 ? Let me know the label of the one you choose.
2
